assayText: gradient 5% acetonitrile 3 min, to 50% in 2 min, to 85% in 15 min, held 3 min, 100 µL/min
measurementConditions: column: Zorbax Extend-C18 2.1 x 50 mm; eluents: water / acetonitrile, 0.1% formic acid
observationType: RP-LC retention time (s)
One number for each entry, in s.

Some molecules with recorded RP-LC retention time:
# molecule, unitSymbol, valueObserved
records = [
    ("Cn1nc(-c2nc(C3CC3)no2)c2c1CCN(C(=O)c1ccc(Cl)s1)C2", "s", 928),
    ("O=S(=O)(c1cccnc1)N1CCC(OC2CCN(Cc3ccccc3)CC2)CC1", "s", 637),
    ("Cc1cccc(NC(=O)CSc2nnc(C)s2)c1", "s", 715),
    ("CSc1ccccc1CN1CCC(CNC(=O)C2(c3ccc(F)cc3)CC2)CC1", "s", 596),
    ("COc1ccc(-c2cc3n(n2)CCCN(C(=O)NCc2ccccc2)C3)cc1OC", "s", 929),
]

Below are some molecules; for each one, tell me its RP-LC retention time.
1. CCN1C(=O)c2cccnc2Sc2cc(C(=O)N3CCCCC3)ccc21
2. CCC(=O)N1CCCCCNC(=O)[C@@H]2CCC[C@@H]21
3. COCCn1c(CCCC(=O)Nc2ccc(Cl)cc2)nc2cccnc21
4. CCCCNC(=O)C1CCCN(c2nnc(C)c3c(C)n(-c4ccc(C)cc4)nc23)C1 (stereo not drawn)

Ans.
730
621
693
733
